src = patent US4383113A

System: sorghum
assay protocol: Test A post-emergence
Assay type: in vivo
Design: key: 0 = no effect, 10 = maximum effect; letter = response symbol
experimental context: 0.4 kg/ha
Provide the reported response rating of each item.
Answers are plain numbers, in C.

Exercise: Which response rating value is on record for COc1cc(C)nc(NC(=O)NS(=O)(=O)c2ccccc2C(=O)OC2CCOC2)n1 (stereo not shown) [drawing 446] ?
Key: 9

Please look at the following compound next.
Exercise: Which response rating value is on record for COc1cc(C)nc(NC(=O)NS(=O)(=O)c2ccccc2C(=O)SC)n1 [drawing 477] ?
Key: 9

* * *

Provide the reported response rating of each item.
Tested on: cocklebur
assay protocol: Test A post-emergence
Assay type: in vivo, Xanthium spp.
Parameters: key: 0 = no effect, 10 = maximum effect; letter = response symbol
experimental context: 2 kg/ha
Answers are plain numbers, in C.

# annotated cases, reported response rating shown
Exercise: Which response rating value is on record for CCOC(=O)c1ccccc1S(=O)(=O)NC(=O)Nc1nc(OC)cc(OC)n1 [drawing 441] ?
Key: 9

Exercise: Repeat with COC(=O)c1ccccc1S(=O)(=O)NC(=O)Nc1nnc(C)c(C)n1 [drawing 417]
Key: 9

Exercise: Repeat with CCCCOC(=O)c1ccccc1S(=O)(=O)NC(=O)Nc1nc(C)cc(OC)n1 [drawing 440]
Key: 10

Exercise: Repeat with CCCCOC(=O)c1ccccc1S(=O)(=O)NC(=O)Nc1nc(OC)cc(OC)n1 [drawing 439]
Key: 9

Next:
Exercise: Which response rating value is on record for COC(=O)c1ccccc1S(=O)(=O)NC(=O)Nc1nc(C)cc(C)n1 [drawing 412] ?
Key: 9

* * *

Provide the reported response rating of each item.
System: cassia
assay protocol: Test A post-emergence
Type: in vivo, Cassia tora
Design: key: 0 = no effect, 10 = maximum effect; letter = response symbol
experimental context: 0.4 kg/ha
One number for each entry, in C.

# annotated cases, reported response rating shown
Exercise: Which response rating value is on record for COC(=O)c1ccccc1S(=O)(=O)NC(=O)Nc1nc(OC)cc(OC(C)C(=O)OC)n1 (centres unmarked) [drawing 468] ?
Key: 9

Exercise: Repeat with COc1cc(OC)nc(NC(=O)NS(=O)(=O)c2ccccc2C(=O)OC2CCCCC2)n1 [drawing 431]
Key: 1

Exercise: Repeat with COCCCOc1cc(C)nc(NC(=O)NS(=O)(=O)c2ccccc2C(=O)OC)n1 [drawing 470]
Key: 9

Hello, I would appreciate it if you could give response rating for each entry below.
1. COc1cc(C)nc(NC(=O)NS(=O)(=O)c2ccccc2C(=O)OC(C)CCl)n1 (centres unmarked) [drawing 478]
2. COc1cc(C)nc(NC(=O)NS(=O)(=O)c2ccccc2C(=O)NC(C)C)n1 [drawing 463]
3. COc1nc(NC(=O)NS(=O)(=O)c2ccccc2C(=O)OCCCl)nc(OC)n1 [drawing 422]
4. COC(=O)c1ccccc1S(=O)(=O)NC(=O)Nc1nc(C)cc(C)n1 [drawing 412]
5. COc1nc(C)nc(NC(=O)NS(=O)(=O)c2ccccc2C(=O)OC2CCCCC2C)n1 (centres unmarked)
6. COC(=O)c1cc(F)ccc1S(=O)(=O)NC(=O)Nc1nc(C)nc(OC)n1 [drawing 450]

Key:
1: 10; 2: 9; 3: 10; 4: 9; 5: 9; 6: 9

Hello, I would appreciate it if you could give response rating for each entry below.
1. COc1cc(C)nc(NC(=O)NS(=O)(=O)c2ccccc2C(=O)SCc2ccccc2)n1 [drawing 475]
2. COc1nc(C)nc(NC(=O)NS(=O)(=O)c2ccccc2C(=O)OCCCl)n1 [drawing 426]
3. COC(=O)c1cc(Cl)ccc1S(=O)(=O)NC(=O)Nc1nc(OC)cc(OC)n1 [drawing 433]

Key:
1: 9; 2: 9; 3: 9

Hello, I would appreciate it if you could give response rating for each entry below.
1. COc1cc(C)nc(NC(=O)NS(=O)(=O)c2ccccc2C(=O)SC)n1 [drawing 477]
2. COC(=O)c1ccccc1S(=O)(=O)NC(=O)Nc1nc(OC)nc(OC)n1 [drawing 416]

Key:
1: 9; 2: 9

* * *

Provide the reported response rating of each item.
Tested on: sorghum
assay protocol: Test A post-emergence
Assay type: in vivo
Parameters: key: 0 = no effect, 10 = maximum effect; letter = response symbol
experimental context: 0.4 kg/ha
Answers are plain numbers, in C.

# annotated cases, reported response rating shown
Exercise: Which response rating value is on record for CCOC(=O)c1ccccc1S(=O)(=O)NC(=O)Nc1nc(OC)cc(OC)n1 [drawing 442] ?
Key: 9

Exercise: Repeat with COc1cc(C)nc(NC(=O)NS(=O)(=O)c2ccccc2C(=O)SC2CCCCC2)n1 [drawing 476]
Key: 9

Please look at the following molecule next.
Exercise: Which response rating value is on record for COc1cc(C)nc(NC(=O)NS(=O)(=O)c2ccccc2C(=O)NCc2ccccc2)n1 [drawing 464] ?
Key: 9

* * *

Test system: purple nutsedge
assay protocol: Test F post-emergence
Assay type: in vivo, Cyperus rotundus
experimental context: .125 kg/ha
assay metric: response rating after 4 weeks (C)
Answers are plain numbers, in C.

Exercise: Value wanted: response rating after 4 weeks (purple nutsedge) of entry COc1cc(OC)nc(NC(=O)NS(=O)(=O)c2ccccc2C(=O)OC(C)C)n1 [drawing 602]
Key: 10

Hello, I would appreciate it if you could give response rating after 4 weeks for each entry below.
1. COC(=O)c1ccccc1S(=O)(=O)NC(=O)Nc1ncccn1 [drawing 596]
2. COC(=O)c1cc(Cl)ccc1S(=O)(=O)NC(=O)Nc1nc(OC)cc(OC)n1 [drawing 605]

Key:
9
10

Hello, I would appreciate it if you could give response rating after 4 weeks for each entry below.
1. CCOC(=O)c1ccccc1S(=O)(=O)NC(=O)Nc1nc(OC)cc(OC)n1 [drawing 598]
2. COC(=O)c1cc(Cl)ccc1S(=O)(=O)NC(=O)Nc1nc(OC)nc(OC)n1 [drawing 603]
3. COC(=O)c1cc(Cl)ccc1S(=O)(=O)NC(=O)Nc1nc(C)cc(OC)n1 [drawing 604]
4. COc1cc(C)nc(NC(=O)NS(=O)(=O)c2ccccc2C(=O)OC(C)C)n1 [drawing 601]
5. CCCCOC(=O)c1ccccc1S(=O)(=O)NC(=O)Nc1nc(C)cc(OC)n1 [drawing 599]
6. COC(=O)c1ccccc1S(=O)(=O)NC(=O)Nc1nnc(C)c(C)n1 [drawing 597]

Key:
1. 10
2. 10
3. 9
4. 10
5. 8
6. 9

* * *

Tested on: sorghum
assay protocol: Test A pre-emergence
Type: in vivo
Parameters: key: 0 = no effect, 10 = maximum effect; letter = response symbol
experimental context: 0.4 kg/ha
Provide the reported response rating of each item.
One number for each entry, in H.

# annotated cases, reported response rating shown
Exercise: Which response rating value is on record for COc1cc(C)nc(NC(=O)NS(=O)(=O)c2ccccc2C(=O)SCc2ccccc2)n1 [drawing 542] ?
Key: 9

Exercise: Repeat with COC(=O)c1ccccc1S(=O)(=O)NC(=O)Nc1nc(C)cc(OC)n1 [drawing 480]
Key: 9

Next:
Exercise: Which response rating value is on record for COC(=O)c1ccccc1S(=O)(=O)NC(=O)Nc1nc(OC)cc(OC)n1 [drawing 481] ?
Key: 9

* * *

Provide the reported response rating of each item.
Tested on: corn
assay protocol: Test A pre-emergence
Type: in vivo
Design: key: 0 = no effect, 10 = maximum effect; letter = response symbol
experimental context: 0.4 kg/ha
One number for each entry, in G.

# annotated cases, reported response rating shown
Exercise: Which response rating value is on record for COc1cc(C)nc(NC(=O)NS(=O)(=O)c2ccccc2C(=O)OCCOc2ccccc2)n1 [drawing 528] ?
Key: 9

Exercise: Repeat with COc1cc(C)nc(NC(=O)NS(=O)(=O)c2ccccc2C(=O)CCC(C)C)n1 [drawing 516]
Key: 9

Exercise: Repeat with COc1cc(C)nc(NC(=O)NS(=O)(=O)c2ccccc2C(=O)SCc2ccccc2)n1 [drawing 542]
Key: 9

Exercise: Repeat with COc1cc(C)nc(NC(=O)NS(=O)(=O)c2ccccc2C(=O)SC2CCCCC2)n1 [drawing 543]
Key: 9

Hello, I would appreciate it if you could give response rating for each entry below.
1. CCCCCCCCCCCCNC(=O)c1ccccc1S(=O)(=O)NC(=O)Nc1nc(C)nc(OC)n1 [drawing 534]
2. CCCCCCCCCCOC(=O)c1ccccc1S(=O)(=O)NC(=O)Nc1nc(OC)nc(OC)n1 [drawing 496]
3. COC(=O)c1ccccc1S(=O)(=O)NC(=O)Nc1nc(C)nc(N(C)C)n1 [drawing 539]
4. CCCCCCCCCCOC(=O)c1ccccc1S(=O)(=O)NC(=O)Nc1nc(C)nc(OC)n1 [drawing 497]
5. CCCCOC(=O)c1ccccc1S(=O)(=O)NC(=O)Nc1nc(C)cc(OC)n1 [drawing 507]
6. COC(=O)c1ccccc1S(=O)(=O)NC(=O)Nc1nc(OC)nc(OC)n1 [drawing 483]

Key:
[8, 2, 9, 4, 9, 9]
